B1: library; numbered along this chain (parent)
chain: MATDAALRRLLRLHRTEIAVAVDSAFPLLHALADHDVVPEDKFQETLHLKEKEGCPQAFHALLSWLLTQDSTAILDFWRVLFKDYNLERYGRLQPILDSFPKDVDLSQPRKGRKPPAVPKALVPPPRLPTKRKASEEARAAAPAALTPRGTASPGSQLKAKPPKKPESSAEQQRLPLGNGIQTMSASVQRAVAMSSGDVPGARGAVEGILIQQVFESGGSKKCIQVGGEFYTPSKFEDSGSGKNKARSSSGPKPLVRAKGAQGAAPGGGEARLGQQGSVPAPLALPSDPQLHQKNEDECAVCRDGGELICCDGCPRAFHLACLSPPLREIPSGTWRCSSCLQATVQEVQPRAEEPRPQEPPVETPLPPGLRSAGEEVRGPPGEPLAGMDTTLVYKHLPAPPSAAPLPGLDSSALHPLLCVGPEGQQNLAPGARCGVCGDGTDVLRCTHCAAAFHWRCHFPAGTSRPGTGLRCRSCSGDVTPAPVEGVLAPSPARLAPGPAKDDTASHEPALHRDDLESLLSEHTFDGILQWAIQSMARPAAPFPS

Variants of: B1
procedure-text: AIRE transcriptional activation functional score (insulin promoter-GFP; nonsense median 0, synonymous median 1) (normalised score); higher = higher AIRE activity (more reporter activation)
particulars: with insulin promoter-GFP reporter in HEK293
Lab note: anything with AIRE transcriptional activation functional score at or over 0.9 counts as true; the rest go in false.

>  <mutation>
E353M

>  <cat>
true

$$$$
>  <mutation>
T463Q

>  <cat>
false

$$$$
>  <mutation>
T468K

>  <cat>
false

$$$$
>  <mutation>
I224H

>  <cat>
false

$$$$
>  <mutation>
G268W

>  <cat>
true

$$$$
>  <mutation>
C446D

>  <cat>
false

$$$$
>  <mutation>
V362K

>  <cat>
true

$$$$
>  <mutation>
E207P

>  <cat>
false

$$$$
